Reported GFP response relative to DMSO values for the following molecules.
- TEST: LAP4-GFP expression modulators in yeast, confirmation, cell-based, cherry picks, flow cytometry, mother/daughter gates (AID 2271);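 note: ratio of sample to DMSO plate mean so 100% equals DMSO level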
- EXPERIMENTAL SETUP: S. cerevisiae LAP4-GFP strain, 3 h, at 10 µM, stronger effect = higher value, 100 means same as DMSO control
MEASURE NAME: GFP response relative to DMSO (%)

* O=C(NC(=S)NNC(=O)c1cnccn1)c1ccc(Cl)cc1 | 279
* O=C1c2ccccc2C(=O)c2c([N+](=O)[O-])ccc(O)c21 | 122
* CC(C)c1nnc(NC(=O)c2nc(S(=O)(=O)Cc3ccc(F)cc3)ncc2Cl)s1 | 101
* Cc1ccc(S(=O)(=O)N(CC(=O)Nc2cccnc2)c2ccccc2C)cc1 | 97
* Cn1ncc2c(O/N=C(\N)c3ccc(C(C)(C)C)cc3)ncnc21 | 143
* O=C(O)Cc1csc(-c2cccc(Oc3ccccc3)c2)n1 | 105
* Cc1cc(NC(=O)c2cncc(Br)c2)ccc1NC(=O)c1cc2ccccc2o1 | 90.2
* COc1ccc(S(=O)(=O)N2CCC(O)(c3ccc(Cl)cc3)CC2)cc1 | 97.9
* CCC(=O)c1ccc(N2CCN(C(=O)c3ccc(Br)cc3)CC2)c(F)c1 | 115
* CS/C(N)=N/N=C/c1ccc2c(c1)OCO2 | 106
* CCOc1cc(/C=C2\N=C(C)OC2=O)cc(Br)c1OCC(=O)OC | 133
* Cc1ccccc1C(=O)Nc1cccc(C#N)c1 | 97.7
* Clc1ccc(Nc2ncnc3ccc(Br)cc23)cc1 | 122
* CCC(Sc1nc(=O)cc(N)n1-c1ccccc1)C(=O)Nc1cc(C)on1 (stereo not given) | 105
* CC1=CCC(C(=O)O)C(C(=O)Nc2ccc(-c3nc4ccc(C)cc4s3)cc2)C1 (stereo not given) | 96.1
* CCCCn1c(-c2csc3c2CCCC3)n[nH]c1=S | 122
* CC(=O)Oc1c(C)cc(Cl)cc1C(=O)Nc1ccc([N+](=O)[O-])cc1Cl | 91.2
* O=C(O)c1ccc2c3c(ncnc13)-c1ccccc1C2=O | 135
* Cc1ccc(/C=C2/SC(=S)N(C3CCCCC3)C2=O)o1 | 157
* O=C(NNC(=S)NC(=O)c1cn(-c2ccccc2)nc1-c1ccccc1)c1ccncc1 | 143
* COc1ccc(C(=O)C2CCCN(C(=O)c3cccs3)C2)cc1F (stereo not given) | 98.2
* COc1cc(CCN2C(=O)c3cccc4cccc(c34)C2=O)c(S(=O)(=O)NCCCO)cc1OC | 95.3
* O=C1Nc2ccc(Br)cc2/C1=C/C(=O)c1ccc2c(c1)OCO2 | 125
* CCOC(=O)c1cnn(-c2cc(C)nc3c(-c4ccccc4)c(C)nn23)c1N | 95.4
* COc1cc(NC(=O)c2c(OC)cccc2OC)ccc1NC(=O)c1cc2ccccc2o1 | 109
* C/C(=N\NC(=O)c1ccc(Br)cc1)c1ccccc1 | 97.9
* Cc1cc(C)nc(/N=c2/ssnc2Cl)c1 | 142
* C/C(=N\NC(=O)c1cccc(Br)c1)c1ccc(Br)cc1 | 106
* CC(=O)N(\C=C/C=C/C=C1\Sc2ccccc2C1=O)c1ccccc1 | 153
* Nc1cc(N)nc(SCC(=O)N2CCc3ccccc32)n1 | 97.9
* CCN(CC)CCCN(C(=O)c1cccs1)c1nc(-c2ccc(OC)cc2)cs1 | 98.7
* Cc1ccc(/C=C2\SC(=S)N(CC3CCCO3)C2=O)o1 (stereo not given) | 189
* Cn1c(=O)c(C(=O)Nc2ncccc2O)c(O)c2ccccc21 | 100
* CCOC(=O)Cc1csc(NC(=O)CSc2nnc(-c3ccc(C)cc3)o2)n1 | 103
* COc1cc(NC(=O)c2cc3ccccc3o2)ccc1NC(=O)c1ccco1 | 96.7
* CC[n+]1ccc(/C=C/c2c[nH]c3ccccc23)cc1 | 104
* CC(=O)NC1(C(F)(F)F)C(=O)Nc2c1c(=O)[nH]c(=O)n2CCc1ccccc1 (stereo not given) | 97
* Cc1cc(NC(=O)c2ccc3c(c2)OCCO3)ccc1NC(=O)c1cc2ccccc2o1 | 89.4
* CC(C)CC[n+]1ccccc1/C=C/c1ccc(N(C)C)cc1 | 107
* CCOC(=O)C1C(=O)C=C(c2ccc(C)cc2)CC1c1ccco1 (stereo not given) | 109
* CCN(CC)CCNC(=O)Cn1c(-c2ccccn2)nc2ccccc21 | 96.2
* Cc1cccc(N2C(=O)CC(Sc3nc(C)c4c(n3)CCCC4)C2=O)c1 (stereo not given) | 94.1
* CN(Cc1ccccc1)S(=O)(=O)c1ccc(C(=O)Nc2nnc(C3CC3)o2)cc1 | 98.2
* Cc1ccc(C(=O)O)cc1N1C(=O)c2cccc3cc(Br)cc(c23)C1=O | 102
* CCOC(=O)Cn1cc(/C=C/[N+](=O)[O-])c2ccccc21 | 160
